# system_tested: EGFR (HCC827 cells) (Homo sapiens, UniProt P00533, DEL746-750)
# Construct: endogenous in cells; host or cells: HCC827
# Sequence (P00533 with tags, fused parts or gaps DEL746-750): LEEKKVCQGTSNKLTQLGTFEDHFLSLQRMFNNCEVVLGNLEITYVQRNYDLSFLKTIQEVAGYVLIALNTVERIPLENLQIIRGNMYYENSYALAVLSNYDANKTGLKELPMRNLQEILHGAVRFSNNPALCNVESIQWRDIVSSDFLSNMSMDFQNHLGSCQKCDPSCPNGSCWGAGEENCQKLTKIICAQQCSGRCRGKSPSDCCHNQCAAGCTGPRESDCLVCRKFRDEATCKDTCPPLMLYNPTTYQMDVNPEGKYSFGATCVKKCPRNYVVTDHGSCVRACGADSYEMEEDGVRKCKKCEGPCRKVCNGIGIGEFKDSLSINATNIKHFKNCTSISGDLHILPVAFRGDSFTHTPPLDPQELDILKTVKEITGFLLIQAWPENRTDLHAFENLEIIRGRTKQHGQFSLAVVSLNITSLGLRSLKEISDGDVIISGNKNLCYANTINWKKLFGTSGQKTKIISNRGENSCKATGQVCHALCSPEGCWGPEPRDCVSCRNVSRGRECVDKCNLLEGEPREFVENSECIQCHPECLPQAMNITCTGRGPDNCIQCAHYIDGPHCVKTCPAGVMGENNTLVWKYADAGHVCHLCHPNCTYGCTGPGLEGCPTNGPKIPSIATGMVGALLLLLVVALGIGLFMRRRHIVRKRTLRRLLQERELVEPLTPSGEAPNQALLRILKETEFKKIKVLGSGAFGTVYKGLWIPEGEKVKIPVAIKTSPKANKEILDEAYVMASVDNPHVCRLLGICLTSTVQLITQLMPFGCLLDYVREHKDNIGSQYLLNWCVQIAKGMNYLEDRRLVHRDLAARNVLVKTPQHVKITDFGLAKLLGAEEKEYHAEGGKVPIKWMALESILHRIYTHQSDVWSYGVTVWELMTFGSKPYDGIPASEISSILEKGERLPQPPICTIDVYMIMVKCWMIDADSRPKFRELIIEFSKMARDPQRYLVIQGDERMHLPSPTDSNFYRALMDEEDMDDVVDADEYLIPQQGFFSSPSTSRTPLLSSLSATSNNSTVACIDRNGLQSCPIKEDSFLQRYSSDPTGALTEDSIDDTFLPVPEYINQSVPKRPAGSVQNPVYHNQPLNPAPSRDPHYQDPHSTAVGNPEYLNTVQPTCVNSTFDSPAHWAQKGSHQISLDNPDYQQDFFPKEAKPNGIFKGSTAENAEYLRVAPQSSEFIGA
# test_method_notes: EGFR degradation HTRF assay, HCC827 cells
# Format: cell-based
# condition_context: HCC827, 16h treatment
reported_property: DC50 (nM)

Here are 4 compounds together with their reported answers.
COc1cc(N2CCC(N(C)CCc3ccc(C4CCC(=O)NC4=O)cn3)CC2)c(C)cc1Nc1ncc(Br)c(Nc2ccc3nccnc3c2P(C)(C)=O)n1 (stereo not drawn) : 57.2
COc1cc(N2CCN(CCOc3ccc(C4CCC(=O)NC4=O)cc3)CC2)c(C)cc1Nc1ncc(Br)c(Nc2ccc3nccnc3c2P(C)(C)=O)n1 (stereo not drawn) : 90.4
COc1cc(N2CCN(C3CN(C(=O)c4cnc(C(=O)Nc5ccc(C6CCC(=O)NC6=O)cc5)cn4)C3)CC2)c(C)cc1Nc1ncc(Br)c(Nc2ccc3nccnc3c2P(C)(C)=O)n1 (stereo not drawn) : 6.34
COc1cc(N2CCN(C3CN(C(=O)c4cnc(C(=O)Nc5ccc(C6CCC(=O)NC6=O)cc5)cn4)C3)CC2)ccc1Nc1ncc(Cl)c(Nc2ccccc2P(C)(C)=O)n1 (stereo not drawn) : 17.9

A. COc1cc(N2CCC(N(C)CC3CCN(c4ccc(N5CCC(=O)NC5=O)cc4F)CC3)CC2)c(C)cc1Nc1ncc(Br)c(Nc2ccc3nccnc3c2P(C)(C)=O)n1
B. COc1cc(N2CCC(N3CCN(CCCOc4ccc(OC5CCC(=O)NC5=O)cc4)CC3)CC2)ccc1Nc1ncc(Cl)c(Nc2ccccc2P(C)(C)=O)n1 (stereo not drawn)
Qu. Hi there! Just curious which has the higher DC50 between A and B . Please identify the chosen entry by its label.
Ans. B
(B: 189 nM, A: 14.7 nM)
